# Test system: histamine
# measurementDescription: Released histamine in vitro (antiallergic tests incl. Church-test)
# Type: cell-based, rats
# runConditions: Rattus norvegicus; read-out: Released histamine in vitro, ED50
assayReadout: IC50 (µM)

{"columns": ["compound", "valueObserved"],
 "data": [
  ["CC1CC=C(Nc2ccccc2)c2ncc(C(=O)O)c(=O)n21 (stereo not shown)", 12.3]
]}
